- STUDY SYSTEM: BJ6PAD-N (Bacillus subtilis, UniProt O07006)
- PROTOCOL SUMMARY: Isothermal titration calorimetry of enzyme-substrate interaction, BJ6PAD-N
- Type: binding, Bacillus subtilis J6
- MEASUREMENT CONTEXT: ITC, 37 °C
RESULT TYPE: ΔG (kcal/mol)
Respond with the bare value in kcal/mol.

Answered cases to consult:
>  <TEST SMILES>
O=C(O)/C=C/c1ccc(O)c(O)c1

>  <UNIT TAG>
kcal/mol

>  <ΔG>
-7.292

$$$$
>  <TEST SMILES>
COc1cc(/C=C/C(=O)O)cc(OC)c1O

>  <UNIT TAG>
kcal/mol

>  <ΔG>
-7.337

$$$$
>  <TEST SMILES>
O=C(O)/C=C/c1ccc(O)cc1

>  <UNIT TAG>
kcal/mol

>  <ΔG>
-6.812

$$$$

Let us examine a further case.
Q: Which ΔG is reported with BJ6PAD-N (Bacillus subtilis, UniProt O07006) for this entry: COc1cc(/C=C/C(=O)O)ccc1O ?
Ans: -6.016

###

- STUDY SYSTEM: UniProt:O07006
- PROTOCOL SUMMARY: Isothermal titration calorimetry of enzyme-substrate interaction, BJ6PAD
- Assay type: binding, Bacillus subtilis J6
- MEASUREMENT CONTEXT: ITC, 37 °C
RESULT TYPE: Kd (µM)
Dear colleague, please return just the value in µM, with no unit written.

>  <TEST SMILES>
COc1cc(/C=C/C(=O)O)ccc1O

>  <STUDY SYSTEM>
UniProt:O07006

>  <Kd [µM]>
1.25

$$$$

Q: Could you share which Kd value was measured for COc1cc(/C=C/C(=O)O)cc(OC)c1O ?
Ans: 19.3

###

Catalogue of Increase of specific enzyme activity of BJ6PAD-N compared with BJ6PAD readings, one per entry.
- Test system: BJ6PAD-N
- PROTOCOL SUMMARY: Specific enzyme activity towards phenolic acid substrates, BJ6PAD-N
- Type: biochemical, Bacillus subtilis J6
- MEASUREMENT CONTEXT: BJ6PAD-N vs BJ6PAD
Reply numerically in %, unit not repeated.

>  <TEST SMILES>
COc1cc(/C=C/C(=O)O)cc(OC)c1O

>  <QUANTITATIVE READOUT>
34.83

$$$$
>  <TEST SMILES>
COc1cc(/C=C/C(=O)O)ccc1O

>  <QUANTITATIVE READOUT>
18.37

$$$$
>  <TEST SMILES>
O=C(O)/C=C/c1ccc(O)cc1

>  <QUANTITATIVE READOUT>
18.65

$$$$

Q: Sample O=C(O)/C=C/c1ccc(O)c(O)c1 — what was its Increase of specific enzyme activity of BJ6PAD-N compared with BJ6PAD?
Ans: 9.25
